The measured values listed here are drawn from ChEMBL document CHEMBL1201862.

Items are presented alongside their recorded GI50.
System: MDA-N
Protocol Details: NCI tumour cell line growth inhibition, 48 h
Activity calls are given as the source filed them. Rule as the data show it: active = GI50 up to about 1.1 µM and inactive = higher.
Measurement Name: GI50

                                   compound      reported_result
0  CCC(C#N)NCc1ccc(CNC(C#N)CC)cc1 (stereo not given)  > 100 µM (inactive)
1  c1cc2cc(c1)CN1CCNCCN(CCNCC1)Cc1cccc(c1)CN1CCNCCN(CCNCC1)C2  > 100 µM (inactive)
2  Cc1nn(C(=O)c2ccncc2)c2c1C(c1cccc([N+](=O)[O-])c1)SC(=N)N2 (stereo not given)   > 10 µM (inactive)
3   COc1cc(Nc2nc3ccccc3nc2C(=O)O)cc(OC)c1OC  > 100 µM (inactive)
4            O=c1c2cc(I)ccc2nc(-c2cccs2)n1O   51.2 µM (inactive)

---

Test system: HL-60
Protocol Details: NCI tumour cell line growth inhibition, 48 h
Activity calls are given as the source filed them. No stated cut-off is given here; in the data, active = GI50 up to about 1.1 µM and inactive = higher.
Measurement Name: GI50

                                    compound       reported_result
 0  O=C1C2C=CC(n3[nH]c(=O)n(Cc4ccccc4)c3=O)CC2C(=O)N1c1cccc(Cl)c1 (configuration not stated)   > 100 µM (inactive)
 1         O=C(SCc1cccc2ccccc12)c1ccc(Cl)cc1    48.5 µM (inactive)
 2  CCCNC1=Nc2ccccc2NC(C)C1 (configuration not stated)   > 100 µM (inactive)
 3  O=C1C(Cl)C(c2cc(Br)cc(Br)c2O)N1n1cnc2ccccc2c1=O (configuration not stated)    16.8 µM (inactive)
 4  Cc1ccc(C(=O)N/N=C(\N=N\c2ccccc2Cl)c2ccc(N(C)C)cc2)cc1    14.1 µM (inactive)
 5  CC1(C)CC(c2c[nH]c3ccccc23)=CC2=Nc3ccccc3C21O (configuration not stated)   > 100 µM (inactive)
 6  O=C(NC(C(F)(F)F)(C(F)(F)F)P(=O)(c1ccccc1)c1ccccc1)C(C(F)(F)F)C(F)(F)F    26.5 µM (inactive)
 7  COc1ccc(Cc2c3cc(O)c([O-])cc3cc[n+]2C)cc1    16.3 µM (inactive)
 8  CCCCCCc1cc2cc(-c3csc(CC#N)n3)c(=O)oc2cc1O  > 44.3 µM (inactive)
 9  O=C1OC(=O)C23CSCC12C1C=CC3O1 (configuration not stated)   > 100 µM (inactive)
10  N#Cc1nsnc1-c1nc(-c2nsnc2C#N)nc(-c2nsnc2C#N)n1    76.6 µM (inactive)
11  CC1=CC=C2C(C)(C)CC[C@@H]3OC(=O)[C@H]1[C@]23C   > 100 µM (inactive)

---

Tested on: RPMI-8226
Protocol Details: NCI tumour cell line growth inhibition, 48 h
Calls of active or inactive are those of the source. No stated cut-off is given here; in the data, active = GI50 up to about 1.1 µM and inactive = higher.
Labels: yes for active, no for inactive

                                    compound  discrete_label
 0     COC(OC)c1cccc2c1C(=O)CCC1(CC2)OCCCCO1              no
 1  COc1ccc2c(c1)OC(c1ccccc1O)CC2=O (stereo not drawn)              no
 2  COC(=O)Nc1nc2cc(S(=O)(=O)Nc3ccccn3)ccc2[nH]1              no
 3  CCOCc1nc2c(OC)c(-c3nc4ccc(N5CCN(C)CC5)cc4[nH]3)cc(OC)c2[nH]1              no
 4  CSC1=Nc2ccccc2-c2nc(-c3ccccc3)cc(-c3ccccc3)c2C1              no
 5        CCCCNc1nc(N)nc(Nc2ccc(Br)cc2)c1N=O              no
 6  COc1ccc(/C=N\N2CC(=O)N3C4C=CC(CC4)N3C2=O)cc1 (stereo not drawn)              no
 7     FC(F)(Sc1nc2ccccc2[nH]1)c1nc2ccccc2o1              no
 8  CCOC(=O)C1=C(C)OC2(O)C=CC(O)=C3C(=O)N(c4ccccc4)C(=O)C312 (stereo not drawn)              no
 9  CN(C)/C=C/C(=O)c1cccc(C(=O)/C=C/N(C)C)n1              no
10  C=C1C(=O)O[C@H]2C/C(C)=C/CC[C@]3(C)CCC[C@](C)(CC[C@@H]12)O3              no
11  CC(=O)NNc1nc(C)c(C(=O)NNC(=O)C(=O)Nc2ccc(Cl)cc2Cl)s1              no
12  CC1=CC(=O)CC2(C)CC[C@@H]3C[C@]12OC3(C)C (stereo partly drawn)              no
13  O=c1c2ccccc2nc(-c2cccc(Cl)c2)n1NCC1(O)OCC(O)C(O)C1O (stereo not drawn)              no
14  COC(=O)N[C@@H]1C[C@H]2CC[C@]1(O[Si](C(C)C)(C(C)C)C(C)C)C(=O)C2              no
15  CCCCNC(=S)Nc1nc(C(=O)NNC(=S)NCc2ccccc2)cs1              no
16   O=C(OCc1ccccc1)c1ccc(NCc2cc(O)ccc2O)cc1             yes
17                O=C(NNCc1ccccc1O)c1ccccc1O              no
